Data provenance: ChEMBL document CHEMBL5050844

test: Induction of anti-CD3/CD28 antibodies-stimulated human T cell activation at 1 uM assessed fold increase in IL-2 secretion measured by ELISA assay; type: functional, T cell line
measure: fold change (FC)

1. Cn1cnnc1CC1(c2cccc(N3Cc4c(cc(CN5CC[C@H](F)C5)cc4C(F)(F)F)C3=O)c2)COC1	>=7.5
2. CN(C)Cc1cc(C(=O)Nc2cccc(C3(Cc4nncn4C)COC3)c2)nc(C2CC2)n1	>=7.5
3. C[C@H](Sc1nncn1C)c1cccc(NC(=O)c2cc(C(C)(C)O)cc(C(F)(F)F)n2)c1	<=1
4. COC1CCN(Cc2cc3c(c(C(F)(F)F)c2)CN(c2cccc(C4(Cc5nncn5C)COC4)c2)C3=O)CC1	>=7.5
5. Cn1cnnc1C(F)(F)[C@](C)(F)c1cccc(N2Cc3c(cc(N4CCNCC4)cc3C(F)(F)F)C2=O)c1	>=7.5
6. C[C@H](Cc1nncn1C)c1cccc(NC(=O)c2cc(C(=O)N3CC[C@](C)(O)C3)ccn2)c1	<=1
7. Cn1cnnc1CC1(c2cccc(NC(=O)c3cc(CN4CC[C@H](F)C4)nc(C4CC4)n3)c2)COC1	>=7.5
8. C[C@H](Cc1nncn1C)c1cccc(N2Cc3c(cc(-n4cccn4)cc3C(F)(F)F)C2=O)c1	>=7.5
9. Cn1cnnc1CC1(c2cccc(N3Cc4c(cc(CN5CCC[C@H](F)C5)cc4C(F)(F)F)C3=O)c2)COC1	>=7.5
10. Cn1cnnc1CC1(c2cccc(N3Cc4c(cc(CN5CC[C@H](C#N)C5)cc4C(F)(F)F)C3=O)c2)COC1	>=7.5
11. Cn1cnnc1C(F)(F)[C@](C)(F)c1cccc(N2Cc3c(cc(CN4CC[C@H](F)C4)cc3C(F)(F)F)C2=O)c1	>=7.5
12. Cn1cnnc1CC1(c2cccc(N3Cc4c(cc(N5CCOCC5)cc4C(F)(F)F)C3=O)c2)COC1	>=7.5
13. Cc1conc1CC1(c2cccc(N3Cc4c(cc(CN5CCC6(CC6)C5)cc4C(F)(F)F)C3=O)c2)COC1	>=7.5
14. C[C@H](Sc1nncn1C)c1cccc(N2Cc3c(ccnc3Cl)C2=O)c1	<=1
15. Cc1conc1CC1(c2cccc(NC(=O)c3cc(CN4CCC5(CC5)C4)cc(C4CC4)n3)c2)COC1	>=7.5
